The values you see were collected from patent US7531540B2.

measuredMetric: melting point

linenotation=CCOc1ccc(C2=NN(C3CCN(C(=O)c4ccncc4)CC3)C(=O)[C@@H]3CC=CC[C@H]23)cc1OCC.Cl measuredmetric="melting point" endpointresult="66 to 68 °C"

Entry COc1ccc(C2=NN(C3CCN(c4ncnc5sccc45)CC3)C(=O)[C@@H]3CC=CC[C@H]23)cc1OC , melting point reported as 219 to 220 °C

Entry COc1ccc(C2=NN(C3CCN(Cc4ccc5ccc(=O)oc5c4)CC3)C(=O)[C@@H]3CC=CC[C@H]23)cc1OC.Cl , melting point reported as 264 to 267 °C

Entry CCOc1ccc(C2=NN(C3CCN(C(=O)CCCC(=O)O)CC3)C(=O)[C@@H]3CC=CC[C@H]23)cc1OCC , melting point reported as 133 to 135 °C

---

measuredMetric: melting point

// below: answered compounds
linenotation=CCOc1ccc(C2=NN(C3CCN(S(=O)(=O)c4ccc(C)cc4)CC3)C(=O)[C@@H]3CC=CC[C@H]23)cc1OCC endpointresult="99 to 101 °C"
linenotation=CCOc1ccc(C2=NN(C3CCN(C(=O)NC(C)(C)C)CC3)C(=O)[C@@H]3CC=CC[C@H]23)cc1OCC endpointresult="145 to 148 °C"
linenotation=COc1ccc(C2=NN(C3CCN(c4ccc([N+](=O)[O-])cc4)CC3)C(=O)[C@@H]3CC=CC[C@H]23)cc1OC endpointresult="196 to 197 °C"
linenotation=COc1ccc(C2=NN(C3CCN(C(=O)N4CCOCC4)CC3)C(=O)[C@@H]3CC=CC[C@H]23)cc1OC endpointresult="184 to 185 °C"
linenotation=COc1ccc(C2=NN(C3CCN(Cc4ccncc4)CC3)C(=O)[C@@H]3CC=CC[C@H]23)cc1OC endpointresult="196 to 197 °C"
linenotation=COc1ccc(C2=NN(C3CCN(CC(=O)c4cc(Cl)c(N)c(Cl)c4)CC3)C(=O)[C@@H]3CC=CC[C@H]23)cc1OC.Cl endpointresult="206 °C (dec.)"

Please examine the following record next.
Entry COc1ccc(C2=NN(C3CCN(Cc4ccccn4)CC3)C(=O)[C@@H]3CC=CC[C@H]23)cc1OC.Cl.Cl , melting point reported as 214 to 216 °C
